This collection of values is drawn from patent US10246426B2.

I'd be grateful if you could share measured IC50 for these entries.
subject of test: Cav3.2 (Homo sapiens, UniProt O95180)
Sequence (O95180 whole entry, looked up): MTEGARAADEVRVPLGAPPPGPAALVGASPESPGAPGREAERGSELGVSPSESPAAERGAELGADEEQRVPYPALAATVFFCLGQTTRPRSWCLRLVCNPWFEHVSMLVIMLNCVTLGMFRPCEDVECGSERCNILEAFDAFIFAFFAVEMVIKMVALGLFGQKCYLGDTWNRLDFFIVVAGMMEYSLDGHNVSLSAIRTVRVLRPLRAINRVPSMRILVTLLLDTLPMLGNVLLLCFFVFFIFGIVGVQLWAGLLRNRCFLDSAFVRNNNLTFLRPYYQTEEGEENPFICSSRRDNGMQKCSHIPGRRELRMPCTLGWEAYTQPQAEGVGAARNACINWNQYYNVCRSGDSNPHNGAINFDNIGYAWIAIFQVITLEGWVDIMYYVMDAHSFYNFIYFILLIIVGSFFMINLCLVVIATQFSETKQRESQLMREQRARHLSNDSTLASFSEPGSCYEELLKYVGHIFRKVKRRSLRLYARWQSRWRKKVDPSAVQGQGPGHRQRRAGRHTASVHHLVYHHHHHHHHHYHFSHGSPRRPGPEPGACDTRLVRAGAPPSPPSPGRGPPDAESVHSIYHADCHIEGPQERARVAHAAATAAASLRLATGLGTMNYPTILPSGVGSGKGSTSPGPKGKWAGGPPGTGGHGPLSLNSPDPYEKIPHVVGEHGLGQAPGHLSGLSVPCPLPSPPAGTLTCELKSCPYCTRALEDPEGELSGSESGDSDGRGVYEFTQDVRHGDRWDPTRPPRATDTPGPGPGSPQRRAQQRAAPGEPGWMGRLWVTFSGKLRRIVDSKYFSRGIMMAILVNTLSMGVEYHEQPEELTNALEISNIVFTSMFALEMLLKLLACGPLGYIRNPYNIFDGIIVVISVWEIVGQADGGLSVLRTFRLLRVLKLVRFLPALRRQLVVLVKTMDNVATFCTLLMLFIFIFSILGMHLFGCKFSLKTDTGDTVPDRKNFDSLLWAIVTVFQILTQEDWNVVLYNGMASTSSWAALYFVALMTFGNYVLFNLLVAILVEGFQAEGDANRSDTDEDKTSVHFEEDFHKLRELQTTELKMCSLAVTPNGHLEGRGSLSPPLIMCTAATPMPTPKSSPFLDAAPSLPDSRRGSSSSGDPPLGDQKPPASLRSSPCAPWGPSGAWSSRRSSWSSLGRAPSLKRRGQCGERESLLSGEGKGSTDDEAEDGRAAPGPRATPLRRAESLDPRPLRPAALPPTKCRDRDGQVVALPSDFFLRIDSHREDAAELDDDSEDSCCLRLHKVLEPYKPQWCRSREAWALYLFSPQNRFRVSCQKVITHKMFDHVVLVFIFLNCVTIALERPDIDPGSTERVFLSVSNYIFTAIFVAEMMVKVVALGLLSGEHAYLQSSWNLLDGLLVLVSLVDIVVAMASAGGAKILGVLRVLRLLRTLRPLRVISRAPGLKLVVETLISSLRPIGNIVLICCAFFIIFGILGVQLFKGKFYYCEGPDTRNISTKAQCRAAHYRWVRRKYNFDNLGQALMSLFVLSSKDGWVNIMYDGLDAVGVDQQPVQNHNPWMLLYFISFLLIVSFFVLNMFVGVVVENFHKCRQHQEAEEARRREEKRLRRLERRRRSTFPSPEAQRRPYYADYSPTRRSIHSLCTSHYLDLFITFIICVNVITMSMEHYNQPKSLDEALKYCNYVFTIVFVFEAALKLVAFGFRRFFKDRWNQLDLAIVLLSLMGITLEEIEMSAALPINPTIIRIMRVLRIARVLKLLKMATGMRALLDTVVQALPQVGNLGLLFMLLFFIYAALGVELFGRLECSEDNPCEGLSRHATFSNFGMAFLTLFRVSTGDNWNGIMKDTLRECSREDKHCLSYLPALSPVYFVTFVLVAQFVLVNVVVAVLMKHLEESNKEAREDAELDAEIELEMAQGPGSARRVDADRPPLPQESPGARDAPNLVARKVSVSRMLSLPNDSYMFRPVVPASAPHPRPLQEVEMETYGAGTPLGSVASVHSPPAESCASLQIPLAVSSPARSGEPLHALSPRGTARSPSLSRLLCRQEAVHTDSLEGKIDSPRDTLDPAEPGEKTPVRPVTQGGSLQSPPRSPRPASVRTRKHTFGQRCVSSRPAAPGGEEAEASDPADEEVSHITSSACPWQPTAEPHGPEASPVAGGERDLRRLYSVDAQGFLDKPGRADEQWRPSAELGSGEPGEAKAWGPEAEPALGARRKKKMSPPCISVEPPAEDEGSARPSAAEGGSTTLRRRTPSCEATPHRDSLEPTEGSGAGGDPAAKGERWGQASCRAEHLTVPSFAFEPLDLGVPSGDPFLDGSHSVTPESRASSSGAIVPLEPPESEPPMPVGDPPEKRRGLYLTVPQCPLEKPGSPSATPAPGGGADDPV
method description: Calcium flux FLIPR assay, HEK293 cells recombinantly expressing Cav3.2
study conditions: Cav3.2-channel, Ca2+ entry stimulated by 10 mM CaCl2
Could you give me the number in µM? Just the number is fine.

Param readout = IC50; param system = Cav3.2 (Homo sapiens, UniProt O95180); param query = CCCCc1n[nH]c2ccc(CC(=O)Nc3cnn(Cc4ccc(F)c(F)c4)n3)cc12 [Example 32] ; response: value 0.074

CC1(c2ccc(CC(=O)Nc3cnn(Cc4ccc(C#N)c(F)c4)n3)cc2)COC1 [Example 72] , same question. 0.074

COc1cc(Cn2ncc(NC(=O)Cc3ccc(C(C)C)cc3)n2)cc(F)c1F [Example 222] , same question. 0.3

COc1cc(Cn2ncc(NC(=O)Cc3ccc4c(c3)c(C)cn4C)n2)ccc1F [Example 118] , same question. 0.063

N#Cc1ccc(Cn2ncc(NC(=O)Cc3ccc(C4(F)COC4)cc3)n2)cc1 [Example 198] , same question. 0.13

CN(C)c1ccc(CC(=O)Nc2cnn(Cc3ccc(F)cc3)n2)cc1 [Example 2] , same question. 0.017

N#Cc1ccc(Cn2ncc(NC(=O)Cc3ccc(OC4CC(F)(F)C4)cc3)n2)cc1 [Example 196] , same question. 0.041

COc1ccc(Cn2ncc(NC(=O)Cc3ccc(N4CCC(F)(F)C4)nc3)n2)cc1C#N [Example 207] , same question. 0.13

CCOc1ccc(Cn2ncc(NC(=O)Cc3ccc4c(cnn4C)c3)n2)cc1 [Example 46] , same question. 0.063

COCCOc1ccc(Cn2ncc(NC(=O)Cc3ccc4c(ccn4C)c3)n2)cc1 [Example 87] , same question. 0.46

Cn1ccc2cc(CC(=O)Nc3cnn(Cc4ccc(C#N)c(F)c4)n3)ccc21 [Example 70] , same question. 0.018

COc1c(F)cc(Cn2ncc(NC(=O)Cc3ccc(C4(OC)COC4)cc3)n2)cc1F [Example 143] , same question. 0.076

CN1C(=O)C(C)(C)c2cc(CC(=O)Nc3cnn(Cc4ccc(F)c(F)c4)n3)ccc21 [Example 19] , same question. 0.0097

CCOc1ccc(Cn2ncc(NC(=O)Cc3ccc(C(C)C)cc3)n2)cc1 [Example 44] , same question. 0.04

CC1(COc2ccc(CC(=O)Nc3cnn(Cc4ccc(C#N)cc4)n3)cc2)CC(F)(F)C1 [Example 197] , same question. 0.052

CCn1ncc2cc(CC(=O)Nc3cnn(Cc4ccc(OC(F)(F)F)c(F)c4)n3)ccc21 [Example 190] , same question. 0.014

COc1ccc(Cn2ncc(NC(=O)Cc3ccc4c(cnn4C)c3)n2)cc1F [Example 152] , same question. 0.091

CCn1ncc2cc(CC(=O)Nc3cnn(Cc4ccc(F)c(OC)c4)n3)ccc21 [Example 117] , same question. 0.08

N#Cc1ccc(Cn2ncc(NC(=O)Cc3ccc(S(F)(F)(F)(F)F)cc3)n2)cc1F [Example 232] , same question. 0.11

COc1cc(Cn2ncc(NC(=O)Cc3ccc4c(c3)c(C)nn4C)n2)cc(F)c1F [Example 210] , same question. 0.26

COc1cc(Cn2ncc(NC(=O)Cc3ccc(C(C)(C)C)cc3)n2)ccc1F [Example 119] , same question. 0.062

Cc1ccc(Cn2ncc(NC(=O)Cc3ccc(C(C)C)cc3)n2)cc1C#N [Example 216] , same question. 0.074

Cc1cc(Cn2ncc(NC(=O)Cc3ccc(N4CCCC4)nc3)n2)ccc1C#N [Example 170] , same question. 0.05

CC(C)(C)c1ccc(CC(=O)Nc2cnn(Cc3ccc(C#N)c(F)c3)n2)cc1 [Example 73] , same question. 0.037

CCN(CC)c1ccc(CC(=O)Nc2cnn(Cc3ccc(OC)c(OC)c3)n2)cn1 [Example 47] , same question. 0.56

CC(C)c1ccc(CC(=O)Nc2cnn(Cc3ccc(OC(F)F)c(F)c3)n2)cc1 [Example 180] , same question. 0.043

COc1ccc(Cn2ncc(NC(=O)Cc3ccc4c(ccn4C)c3)n2)cc1 [Example 57] , same question. 0.038

COc1c(F)cc(Cn2ncc(NC(=O)Cc3ccc4cnn(C)c4c3)n2)cc1F [Example 142] , same question. 0.088

Cc1ccc(Cn2ncc(NC(=O)Cc3ccc(C4(C)COC4)cc3)n2)cc1 [Example 67] , same question. 0.066

Cc1ccc(Cn2ncc(NC(=O)Cc3ccc4c(ccn4C)c3)n2)cc1 [Example 64] , same question. 0.03

COc1ccc(Cn2ncc(NC(=O)Cc3ccc(N4CCCC4)nc3)n2)cc1C#N [Example 236] , same question. 0.16

COc1cc(Cn2ncc(NC(=O)Cc3ccc4cnn(C)c4c3)n2)ccc1F [Example 109] , same question. 0.19

COc1c(F)cc(Cn2ncc(NC(=O)Cc3ccc(C(C)(C)C)cc3)n2)cc1F [Example 79] , same question. 0.046

COc1ccc(Cn2ncc(NC(=O)Cc3ccc(OCC4(C)COC4)cc3)n2)cc1F [Example 123] , same question. 0.87

* * *

subject of test: Cav3.2 (Homo sapiens)
method description: Calcium flux FLIPR assay, HEK293 cells recombinantly expressing Cav3.2
study conditions: Cav3.2-channel, Ca2+ entry stimulated by 10 mM CaCl2
readout name: IC50 (nM)
Could you give me the number in nM? Just the number is fine.

Param readout = IC50; param system = Cav3.2 (Homo sapiens); param query = COc1cc(Cn2ncc(NC(=O)Cc3ccc4c(cnn4C)c3)n2)cc(F)c1F ; response: value 230

O=C(Cc1ccc(N2CCC(F)(F)C2)nc1)Nc1cnn(Cc2ccc(F)c(F)c2)n1 , same question. 7.3

COc1cc(Cn2ncc(NC(=O)Cc3ccc(C4(F)COC4)cc3)n2)cc(F)c1F , same question. 190

CCOc1ccc(Cn2ncc(NC(=O)Cc3ccc(C(C)(C)C)cc3)n2)cc1 , same question. 45

Cc1cc(Cn2ncc(NC(=O)Cc3ccc(C(C)(C)C)cc3)n2)ccc1C#N , same question. 36

Cc1cc(Cn2ncc(NC(=O)Cc3ccc(OC4CC(F)(F)C4)cc3)n2)ccc1C#N , same question. 33

COc1ccc(Cn2ncc(NC(=O)Cc3ccc(N4CCC(F)(F)C4)nc3)n2)cc1 , same question. 60

CC(C)c1ccc(CC(=O)Nc2cnn(Cc3ccc(C#N)cc3)n2)cc1 , same question. 19

Cn1ncc2ccc(CC(=O)Nc3cnn(Cc4ccc(OC(F)(F)F)c(F)c4)n3)cc21 , same question. 17

N#Cc1ccc(Cn2ncc(NC(=O)Cc3ccc(N4CCC(F)(F)C4)nc3)n2)cc1 , same question. 36

O=C(Cc1ccc(N2CCCC2)nc1)Nc1cnn(Cc2ccc(OC(F)F)c(F)c2)n1 , same question. 26

Cc1ccc(Cn2ncc(NC(=O)Cc3ccc(N4CCCC4)nc3)n2)cc1C#N , same question. 120

Cc1cc(Cn2ncc(NC(=O)Cc3ccc4c(c3)c(C)cn4C)n2)ccc1C#N , same question. 22

COc1c(F)cc(Cn2ncc(NC(=O)Cc3ccc(C(C)C)cc3)n2)cc1F , same question. 29

COc1cc(Cn2ncc(NC(=O)Cc3ccc4cnn(C)c4c3)n2)cc(F)c1F , same question. 560

Cc1cc(Cn2ncc(NC(=O)Cc3ccc4c(cnn4C)c3)n2)ccc1C#N , same question. 110

CCOc1ccc(Cn2ncc(NC(=O)Cc3ccc(N4CCC(F)(F)C4)nc3)n2)cc1 , same question. 18

COC1(c2ccc(CC(=O)Nc3cnn(Cc4ccc(C#N)cc4)n3)cc2)COC1 , same question. 200

CC(C)c1ccc(CC(=O)Nc2cnn(Cc3ccc(F)cc3)n2)cc1 , same question. 21

COc1ccc(Cn2ncc(NC(=O)Cc3ccc(N4CCCC4)nc3)n2)cc1F , same question. 70

Cc1cc(Cn2ncc(NC(=O)Cc3ccc4cnn(C)c4c3)n2)ccc1C#N , same question. 330

CCOc1ccc(Cn2ncc(NC(=O)Cc3ccc(C4(C)COC4)cc3)n2)cc1 , same question. 31

N#Cc1ccc(Cn2ncc(NC(=O)Cc3ccc(OCC4(F)COC4)cc3)n2)cc1F , same question. 100

O=C(Cc1ccc(C2(C(F)(F)F)CC2)cc1)Nc1cnn(Cc2ccc(OC(F)(F)F)c(F)c2)n1 , same question. 96

O=C(Cc1ccc(C2(F)COC2)cc1)Nc1cnn(Cc2ccc(F)c(F)c2)n1 , same question. 17

CCN(CC)c1ccc(CC(=O)Nc2cnn(Cc3ccc(F)cc3)n2)cn1 , same question. 46

Cc1ccc(Cn2ncc(NC(=O)Cc3ccc(N4CCCC4)nc3)n2)cc1 , same question. 45

O=C(Cc1ccc(N2CCCC2)nc1)Nc1cnn(Cc2ccc(OC(F)(F)F)c(F)c2)n1 , same question. 23

O=C(Cc1ccc(N2CCC(F)(F)C2)nc1)Nc1cnn(Cc2ccc(OC(F)F)c(F)c2)n1 , same question. 13

CCN(CC)c1ccc(CC(=O)Nc2cnn(Cc3ccc(OC)cc3)n2)cn1 , same question. 160

COc1ccc(Cn2ncc(NC(=O)Cc3ccc(C(C)C)cc3)n2)cc1C#N , same question. 160

COc1c(F)cc(Cn2ncc(NC(=O)Cc3ccc(OCC4(C)COC4)cc3)n2)cc1F , same question. 56

COc1ccc(Cn2ncc(NC(=O)Cc3ccc(C(C)(C)C)cc3)n2)cc1 , same question. 44

Cn1ncc2cc(CC(=O)Nc3cnn(Cc4ccc(F)cc4)n3)ccc21 , same question. 38
